src = PubChem BioAssay AID1578

# inhibition per record follows
protocol-notes: NOD1 signaling inhibitors, primary screen, cell-based, luminescence, uHTS (AID 1578);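 further: HEK-293T reporter cells stimulated with the NOD1 agonist gamma-tri-DAP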
condition-info: NOD1-driven NF-kB luciferase reporter cells, at 4 µM, active compounds read high
About 3,000 (1%) of roughly 290,000 compounds were called active. What follows is part of a selection rich in actives, with near analogues and random picks from the rest.
Reply with just the number (in %).

Cc1nc2c(ccc3nc(NC(=O)C4CC4)sc32)s1 : 69
CN(C)C(CNc1ncnc2sccc12)c1ccccc1 (stereo unspecified) : 4
CCOC(=O)N/N=C/c1cn(CCCOc2ccc(C)cc2)c2ccccc12 : 31.1
O=C(CCNS(=O)(=O)c1c(Cl)cccc1Cl)OCC(=O)c1ccccc1 : 10.5

Lookup: // lookup inhibition for CC(=O)Nc1cc(ON=C(C)C)cc([N+](=O)[O-])c1
Found: -34.9

Lookup: // lookup inhibition for CCC(=O)Nc1cc(ON=C(C)C)cc([N+](=O)[O-])c1
Found: -24.6

Lookup: // lookup inhibition for COc1ccc(CCNC(=O)CSc2nc3c(c(=O)n(C)c(=O)n3C)n2C)cc1OC
Found: -28.4

Lookup: // lookup inhibition for COc1ccc(Cl)cc1NC(=O)CCc1nnc2ccc(N3CCN(C)CC3)nn12
Found: 58

Lookup: // lookup inhibition for Fc1ccccc1COc1ccc(Br)cc1CNCc1cccnc1
Found: -5

###

protocol-notes: NOD1 signaling inhibitors, primary screen, cell-based, luminescence, uHTS (AID 1578);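 further: HEK-293T reporter cells stimulated with the NOD1 agonist gamma-tri-DAP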
condition-info: NOD1-driven NF-kB luciferase reporter cells, at 4 µM
Screen size: about 290,000 compounds; about 3,000 (1%) were called active. No stated cut-off is given here; in the data, active means inhibition mostly above about 36% (no sharp cut-off); inactive means mostly below about 34%. Many of the other results were omitted from the sample, so actives are more common in it than they were.
Pick from T for active, F for inactive when you respond.

Answered examples (5):
CCC(C(=O)NC1CC(C)(C)NC(C)(C)C1)c1ccccc1 (stereo not drawn) : F
O=S(=O)(Nc1cc(Sc2cccc3cccnc23)c(O)c2ccccc12)c1ccc(F)cc1 : F
O=[N+]([O-])/C=C/c1ccc2c(ccn2Cc2ccccc2)c1 : F
O=C(Nc1ccc(Br)c(C(F)(F)F)c1)c1ccccc1 : F
COc1ccc(-c2ccc(C(C)=O)cc2)cc1[C@H]1[C@H]2C=CC[C@@H](C)[C@@H]2C(=O)N1Cc1ccccc1 : F

Read the next record carefully.
Lookup: Returns: the outcome recorded for Cc1c(C)n(-c2ccccc2)c2ncnc(NCCN(C)C)c12 in this assay.
Found: F

###

protocol-notes: NOD1 signaling inhibitors, primary screen, cell-based, luminescence, uHTS (AID 1578);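 further: HEK-293T reporter cells stimulated with the NOD1 agonist gamma-tri-DAP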
condition-info: NOD1-driven NF-kB luciferase reporter cells, at 4 µM, active compounds read high
Screen size: about 290,000 compounds; about 3,000 (1%) were called active. Shown is part of a subset that was picked to be rich in actives.
readout: inhibition

Below: 3 compounds and their reported inhibition.
CCCCNC(=S)Nc1ccc(Cl)cc1 : 0.1% (inactive)
CCOC(CNc1cc(C)nc2c(-c3ccccc3OC)c(C)nn12)OCC : -6.1% (inactive)
CCC(=O)N1c2ccc(S(=O)(=O)N3CCN(c4ccccc4Cl)CC3)cc2CC1C (centres undefined) : 8.1% (inactive)

Lookup: // lookup inhibition for Cc1c(Cl)cccc1NC(=O)Nc1ccccc1C(N)=O
Found: -30% (inactive)

Lookup: // lookup inhibition for COc1cccc(-c2nc(CS(=O)CC(=O)NCc3ccccc3)c(C)o2)c1 (centres undefined)
Found: -4.3% (inactive)

Lookup: // lookup inhibition for Clc1ccc(CN2CCC(Cc3ccccc3)CC2)cc1
Found: -18.7% (inactive)

Lookup: // lookup inhibition for CC(NC(=O)Cn1nc(C(=O)O)c2ccccc2c1=O)C12CC3CC(CC(C3)C1)C2 (centres undefined)
Found: -19.8% (inactive)

Lookup: // lookup inhibition for CC(C)=CC(=O)Nc1c(C)cc(C)cc1Cl
Found: -18% (inactive)

Lookup: // lookup inhibition for CC1CN(CCOc2ccc([N+](=O)[O-])cc2)CC(C)O1 (centres undefined)
Found: -4.4% (inactive)

Lookup: // lookup inhibition for CC(C)(C)c1ccc(Oc2ccc(N)cn2)cc1
Found: 65.9% (active)
